Sourced from paper PMC7498356

measured on: T1, Oskar LOTUS (eLOTUS) (Drosophila, UniProt P25158 139-241)
T1 sequence: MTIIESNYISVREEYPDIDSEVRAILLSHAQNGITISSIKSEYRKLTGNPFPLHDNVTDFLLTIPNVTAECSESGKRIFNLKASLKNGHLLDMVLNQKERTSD
method: ELISA
result type: binding result

> print(dat)
                                     binder  test.value
1  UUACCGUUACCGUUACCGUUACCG (ssRNA) [TERRA G4 mut RNA]  no binding
2  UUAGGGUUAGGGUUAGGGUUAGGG (structured_RNA) [TERRA G4 RNA]       binds
3  GGUGGGCAGGGGAGUGGGGGUGGG (structured_RNA) [Cluster G4-1 RNA]       binds
4  GGUCCGCAGCCGAGUCCGGGUCCG (ssRNA) [Cluster G4-1 mut RNA]  no binding
